Source of measurements: ChEMBL document CHEMBL4184173

- Assayed system: Tumor necrosis factor (Mus musculus, UniProt P06804)
- Sequence (P06804 whole entry): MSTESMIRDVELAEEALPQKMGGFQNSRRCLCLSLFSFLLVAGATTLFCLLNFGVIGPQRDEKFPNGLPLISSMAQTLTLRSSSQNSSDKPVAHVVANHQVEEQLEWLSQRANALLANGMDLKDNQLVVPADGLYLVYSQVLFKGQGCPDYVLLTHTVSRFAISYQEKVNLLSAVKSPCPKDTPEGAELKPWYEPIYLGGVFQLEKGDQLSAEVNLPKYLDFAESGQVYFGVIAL
- Assay comment: Inhibition of mouse recombinant TNF-alpha binding to antibody preincubated for 30 mins followed by antibody addition measured after 2 hrs by ELISA

# Smiles notation, IC50 (µM)
records = [
    ("CCCCn1cnc(CC(c2c(O)c3ccccc3oc2=O)c2c(O)c3ccccc3oc2=O)c1Cl", 16.5),
]
